# System: Escherichia coli FDA control ATCC 25922
# ASSAY_METHOD_TEXT: Single-dose growth inhibition, Ec
# Assay type: cell-based
# RUN_PARAMETERS: ATCC25922, read-out: Growth inhibition Ec
Provide the recorded inhibition at 32 µg/mL for the entries that follow.

Task: Retrieve inhibition at 32 µg/mL measured for C[N+](C)(C)CCCCCCOc1ccc(/C=C/c2ccc(OCCCCCC[N+](C)(C)C)cc2)cc1 [COE-D6] and print it.
Result: > 80%

Task: In one line, give reported inhibition at 32 µg/mL of the entry C[N+](C)(C)CC[N+](C)(C)CCCCOc1ccc(/C=C/c2ccc(OCCCC[N+](C)(C)CC[N+](C)(C)C)cc2)cc1 [COE-D42] .
Result: < 50%

Task: Return reported inhibition at 32 µg/mL. Input molecule: C[N+](C)(C)CCCCCCCCOc1ccc(/C=C/c2ccc(OCCCCCCCC[N+](C)(C)C)cc2)cc1 [COE-D8]
Result: > 80%

Task: Please report the measured inhibition at 32 µg/mL for C[N+](C)(C)CCCCOc1ccc(/C=C/c2ccc(OCCCC[N+](C)(C)C)cc2)cc1 [COE-D4]
Result: < 50%
